Molecular target: human CYP11B1 (Homo sapiens)
Sequence (P15538 25-503): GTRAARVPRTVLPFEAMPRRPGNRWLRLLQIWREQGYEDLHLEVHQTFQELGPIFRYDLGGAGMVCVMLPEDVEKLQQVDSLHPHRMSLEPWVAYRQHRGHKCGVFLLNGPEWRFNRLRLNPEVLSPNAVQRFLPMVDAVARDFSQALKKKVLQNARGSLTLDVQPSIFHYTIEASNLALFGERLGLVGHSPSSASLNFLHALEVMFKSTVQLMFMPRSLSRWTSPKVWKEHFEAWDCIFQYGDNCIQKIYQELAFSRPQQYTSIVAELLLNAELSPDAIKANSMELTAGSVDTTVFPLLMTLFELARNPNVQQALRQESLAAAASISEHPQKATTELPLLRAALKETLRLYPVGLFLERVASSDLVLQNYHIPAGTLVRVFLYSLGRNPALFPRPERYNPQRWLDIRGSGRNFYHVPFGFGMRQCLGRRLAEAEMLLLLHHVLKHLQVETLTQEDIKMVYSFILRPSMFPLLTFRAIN
Assay: G-402 cellular enzyme assay, human CYP11B1 (cortisol release, HTRF)
Conditions: G-402 cells, 1 μM Deoxycortisol
observable: EC50 (µM)

Illustrative cases are given below, each with its answer.
CC1Cc2cc(Cl)ccc2C(=O)N1c1cncc(CO)c1 (stereo not drawn) [Example 86] | 7.77
O=C1c2ccc(Cl)cc2CCN1c1cncc(N2CCC[C@H]2CO)c1 [Example 135] | 0.523
Cc1nncn1Cc1cncc(N2CCc3cc(Cl)ccc3C2=O)c1 [Example 177] | 6.31

[a] O=C1c2ccc(Cl)cc2CCN1c1cncc(NS(=O)(=O)c2ccccc2)c1 [Example 219]
[b] O=C1c2ccc(Cl)cc2CCN1c1cncc(Cn2ccnn2)c1 [Example 175]
[c] CC(C)c1nccn1Cc1cncc(N2CCc3cc(Cl)ccc3C2=O)c1 [Example 141]
[d] CC(c1cncc(N2CCc3cc(Cl)ccc3C2=O)c1)N1CCOC1=O (stereo not drawn) [Example 275]
Query: Let's sort these by EC50, smallest first. Go ahead? Answer by writing out the labels in the requested order.
Result: b, c, d, a

[1] CC[C@@H]1c2cc(Cl)ccc2C(=O)N1c1cncc2c1CCC[C@@H]2NC(C)=O (single isomer, unassigned) [Example 355]
[2] O=C1c2ccc(Cl)cc2CCN1c1cncc(NCC(F)(F)F)c1 [Example 223]
[3] O=C1c2ccc(Cl)cc2CCN1c1cncc(Cn2ccnc2C2CC2)c1 [Example 188]
Query: Put the entries in order of EC50, starting with the largest number. Answer by writing out the labels in the requested order.
Result: 1, 3, 2
(1: 8.17 µM, 3: 4.15 µM, 2: 1.42 µM)
